test system: A498 renal; assay: NCI tumour cell line growth inhibition, 48 h
Let's look at some compounds and their measured log10(TGI).
measuredQuantity: log10(TGI) (log10 of the value in µM)

Nc1cc(C(F)(F)F)c(-c2nc(N3CCOCC3)nc(N3CCOCC3)n2)cn1
-0.35
O=C1NC(=O)N(S(=O)(=O)c2cc(C(=O)Nc3ccc(Cl)cc3)c(Cl)cc2S)S(=O)(=O)N1
1.48
OCc1ccc(N2CCc3ccc(F)cc3C2)cc1Cl
-1.12
CC(C)(C)C1CC[C@H]2c3c([nH]c4ccccc34)[C@H]3C(=O)N(c4ccc(F)cc4)C(=O)[C@H]3[C@H]2C1 (stereo not given in full)
1.66
COc1ccc(-n2c(=O)c3ccccc3n(Cc3ccc(C(=O)NO)cc3)c2=O)cc1
0.51
COc1ccc([C@@H]2[C@@H](Oc3ccccc3)C(=O)N2c2cc(OC)c(OC)c(OC)c2)cc1F
-1.01
COc1ccc(/C=C2\C[C@H]3[C@@H]4CC=C5C[C@@H](O)CC[C@]5(C)[C@H]4CC[C@]3(C)\C2=N\O)cc1
1.86
CC1=C(C(=O)Nc2ccc3[nH]ncc3c2)C(c2ccc(F)cc2)N=C(c2ccc(C(F)(F)F)nc2)N1 (stereo not given)
0.97
C/C(=C\c1csc(C)n1)[C@@H]1C[C@@H]2O[C@]2(C)CCC[C@H](C)[C@H](O)[C@@H](C)C(=O)C(C)(C)[C@@H](O)CC(=O)N1
-3.67
CC(C)CCCC(C)C1CCC2C3CC([N+](=O)[O-])=C4CC(O)CCC4(C)C3CCC12C (stereo not given)
1.61
O=C(O)c1cn(C2CC2)c2cc(N3CCN(C(=O)N(c4ccccc4)c4nc(-c5ccccc5)cs4)CC3)c(F)cc2c1=O
-0.16
Cc1nc2ccc(N=Nc3c(C)noc3C)cc2[nH]1
1.54
CNCc1cccc2c1OCCOCCOCCNS(=O)(=O)c1ccc(cc1)-c1cnc(N)c(n1)C(=O)N2
0.58

====

Each entry below carries its reported TGI.
system: COLO 205 colon; assay: NCI tumour cell line growth inhibition, 48 h
measuredQuantity: TGI

O=c1c2ccccc2nc2n1CCc1c-2[nH]c2ccccc12
37.9 µM
Cc1nc2ccc(N=Nc3c(C)noc3C)cc2[nH]1
34.5 µM
COC(=O)[C@@H]1Cc2ccc(OC)c(c2)OCCC(=O)N1
> 100 µM
C=C(C)c1nc(Oc2ccccc2)nc(Oc2ccccc2)n1
17.2 µM
CCOC(=O)c1c(Cl)c2c(n1Cc1ccccc1)-c1oncc1CCC2
> 100 µM
N/C(=N\N=C\c1nc2ccccc2o1)c1cnccn1
> 100 µM
NC1=C(c2nc(-c3ccccc3)cs2)C(c2ccco2)c2c(c3ccccc3oc2=O)O1 (configuration not stated)
> 100 µM
COC(=O)C1=C(OC)C(=P2(c3ccccc3)CC(c3ccccc3)=C2c2ccccc2)C(C(=O)OC)=C1C(=O)OC (configuration not stated)
> 50.5 µM
O=S(=O)(O)C(c1ccccc1)C(O)c1ccccc1 (configuration not stated)
> 100 µM
NCCCCNOCCCN
> 100 µM
O=C1c2ccccc2-c2c1c1c(O)cccc1n2Cc1ccccc1
> 100 µM
O=c1c(Oc2ccc(F)cc2F)cc2cnc(NC3CCOCC3)nc2n1C1CC1
> 25 µM
CC[C@@H]1CC[C@@H]2[C@H](CC[C@]3(C)[C@@H](O[N+](=O)[O-])CC[C@@H]23)[C@H]1C(C)=O
24.4 µM
COC(=O)C1(CCCCl)CCCN1C(=O)OC(C)(C)C (configuration not stated)
> 100 µM
O=[N+]([O-])c1ccc(/C=C(/c2ccc([N+](=O)[O-])o2)S(=O)(=O)c2ccccc2)cc1
> 100 µM
O=C(/C=C/c1ccccc1)CCN1CCCCC1
38.4 µM
CCOc1ccc(OP2(=O)NC(=O)C=C(C)N2)cc1 (configuration not stated)
> 100 µM
Cc1ccc2c(=O)cc(-c3cc(C)sc3C)[nH]c2n1
7.52 µM
Cc1ccc2c(c1C)CC1(Cc3ccc(C)c(C)c3C1=O)C2=O (configuration not stated)
> 100 µM
CCC12C=C(C(=O)OC)N3c4ccccc4C4CCN(CCC1)C2C43 (configuration not stated)
> 100 µM
COC(=O)c1sc(=S)sc1SCc1cccc(CSc2sc(=S)sc2C(=O)OC)c1
> 100 µM
CC1=C(C(=O)NNC(=O)C[N+](C)(C)C)CC(C(=O)NNC(=O)C[N+](C)(C)C)=C(C)N1
> 100 µM
